- TEST NAME: HT29 colon tumor cell growth inhibition, primary screen, imaging, high content imaging, 48 h, CellTiter-Glo (AID 771);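 also: condensed means Hoechst nuclear area under control median minus 1.5 SD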
- STUDY CONDITIONS: HCS imaging cell count, measured here: percent cells with condensed nuclei, at 10 µM, stronger effect = higher value
Among all 3,300 compounds or so, about 55 (2%) were called active. Only a selection was taken, and actives are over-represented in it overall.
ASSAY READOUT: condensed nuclei (%)
One number for each entry, in %.

Recorded results for 6 compounds are shown here.
>  <COMPOUND>
COc1ccccc1Nc1ncnc2c1cnn2-c1cccc(C)c1

>  <ASSAY READOUT>
condensed nuclei

>  <NUMERIC VALUE>
2.98

$$$$
>  <COMPOUND>
CCn1cc(C(=O)NCc2ccccn2)c(=O)c2cc(F)c(N3CCN(C)CC3)cc21

>  <ASSAY READOUT>
condensed nuclei

>  <NUMERIC VALUE>
2.93

$$$$
>  <COMPOUND>
Fc1ccc2[nH]c3c(N4CCSCC4)ncnc3c2c1

>  <ASSAY READOUT>
condensed nuclei

>  <NUMERIC VALUE>
4.52

$$$$
>  <COMPOUND>
CCOC(=O)CSc1nc(N(C)C)nc(N(C)C#N)n1

>  <ASSAY READOUT>
condensed nuclei

>  <NUMERIC VALUE>
1.4

$$$$
>  <COMPOUND>
c1ccc2c(c1)[nH]c1c(N3CCN(C4CCCCC4)CC3)ncnc12

>  <ASSAY READOUT>
condensed nuclei

>  <NUMERIC VALUE>
3.08

$$$$
>  <COMPOUND>
CC(C)CNC(=O)c1c(N)n(/N=C/c2ccccn2)c2nc3ccccc3nc12

>  <ASSAY READOUT>
condensed nuclei

>  <NUMERIC VALUE>
2.54

$$$$

# batch size: 5; output condensed nuclei per entry
1. COc1ccc(C(=O)CSC2=C(C#N)C3(CCCCC3)C(C#N)=C(N)N2)cc1
2. CC(C)(C)C1CCC2(CC1)C(C#N)=C(SCC(=O)Nc1ccccc1)NC(=O)C2C#N (stereo not drawn)
3. Fc1ccc2[nH]c3c(N4CCN(Cc5ccc6c(c5)OCO6)CC4)ncnc3c2c1
4. CN(C)CC(O)COc1ccc(-c2ccc(C#N)cc2)cc1 (stereo not drawn)
5. CCCc1nc(N2CCOCC2)c(C#N)c2c1CCCC2

1. 7.53
2. 2.13
3. 29
4. 5.66
5. 0.7

Here are 8 compounds. What values of condensed nuclei were reported for them?
1. C=CCOC(=O)C1=C(C)NC(SCC(=O)N(CC)CC)=C(C#N)C1c1ccco1 (stereo not drawn)
2. CCCc1[nH]nc2c1C(c1cccc(OC)c1)C(C#N)=C(N)O2 (stereo not drawn)
3. CCCCOc1cccc(-c2nnc(N)s2)c1
4. CCOC(=O)C1=C(C)NC(SCC(=O)Nc2nc(C)cs2)=C(C#N)C1c1cccs1 (stereo not drawn)
5. Cc1[nH]c2ccc3c(ncn3CCC#N)c2c1C
6. CCn1cc(C(=O)NCCc2ccccc2)c(=O)c2cc(F)c(N3CCN(C)CC3)cc21
7. CNCCCC12CCC(c3ccccc31)c1ccccc12
8. COc1ccccc1N1CCN(C2CCN(C(=O)c3cccs3)CC2)CC1

2.96
16.6
3.96
11.1
1.79
14.8
18.3
4.31

Give measured condensed nuclei for every item shown.
1. CCN(CC)CCNC(=O)c1ccccc1N
2. COC(=O)c1ccc(Nc2cc(C)nc(-c3ccccc3O)n2)cc1
3. c1ccc2c(c1)[nH]c1c(N3CCSCC3)ncnc12
4. Clc1ccc(-n2ncc3c(NCc4cccs4)ncnc32)cc1
5. Cc1ccc2[nH]c3c(N4CCN(Cc5ccc6c(c5)OCO6)CC4)ncnc3c2c1

1. 0.38
2. 10.7
3. 0.5
4. 3.73
5. 25.3

Dear colleague, could you please provide condensed nuclei for the compounds listed below?
1. CN1CCN(c2ncnc3c2[nH]c2ccc(F)cc23)CC1
2. CCN(CC)C(=O)CSC1=C(C#N)C(c2ccco2)C(C(=O)OCCOC)=C(C)N1 (stereo not drawn)
3. O=C1CCC(=O)N1CN(Cc1ccco1)CN1C(=O)CCC1=O
4. N#CC1=C(N)NC(SCc2ccc(F)cc2)=C(C#N)C12CCCCC2

1. 2.81
2. 3.61
3. 2.24
4. 27.3

// data source = PubChem BioAssay AID771
